Source listed as paper PMC6747724.

# subject_of_test: Isocitrate lyase (Icl) (Paracoccus denitrificans, UniProt A1B1S0)
# Construct: Recombinant His6-tagged Icl (Pden_1363)
# Sequence (A1B1S0 1-535): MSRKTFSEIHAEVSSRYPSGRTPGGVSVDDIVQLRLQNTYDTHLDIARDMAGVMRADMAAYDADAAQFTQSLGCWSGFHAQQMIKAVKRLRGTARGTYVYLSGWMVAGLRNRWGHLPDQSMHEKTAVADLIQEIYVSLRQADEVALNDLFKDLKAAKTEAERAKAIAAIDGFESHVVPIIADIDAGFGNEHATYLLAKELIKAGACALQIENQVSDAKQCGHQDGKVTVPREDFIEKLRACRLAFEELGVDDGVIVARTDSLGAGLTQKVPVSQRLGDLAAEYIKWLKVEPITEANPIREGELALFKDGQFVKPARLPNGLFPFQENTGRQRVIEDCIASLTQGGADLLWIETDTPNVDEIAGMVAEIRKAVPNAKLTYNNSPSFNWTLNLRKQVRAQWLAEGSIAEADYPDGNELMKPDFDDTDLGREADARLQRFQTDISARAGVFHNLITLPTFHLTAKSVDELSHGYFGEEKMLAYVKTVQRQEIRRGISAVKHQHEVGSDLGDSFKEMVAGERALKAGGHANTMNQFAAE
# assay_comment: spectrophotometric phenylhydrazine-glyoxylate assay with purified enzyme, […] min preincubation with 3-NPA at […]°C
quantity: IC50 (µM)
State just the number; it will be interpreted in µM.

Param readout= IC50; system= Isocitrate lyase (Icl) (Paracoccus denitrificans, UniProt A1B1S0); entry= O=C(O)CC[N+](=O)[O-] [3-NPA, 3-nitropropionate] ; returns value.
34
